Hey, just so you know, these numbers are from ChEMBL document CHEMBL1201862.

tested on: NCI-H522; experiment: NCI tumour cell line growth inhibition, 48 h
Activity calls are given as the source filed them. Rule as the data show it: active = GI50 up to about 1.1 µM and inactive = higher.
Below: a set of entries, each annotated with reported GI50.

O=C1C2C3CC(C4C5C=CC(C5)C34)C2C2C3CC(C12)C1C2C=CC(C2)C31 (centres undefined)
> 100 µM (inactive)
C/C=C/C[C@@H](C)C(=O)C1C(=O)N[C@@H](C(C)C)C(=O)N(C)CC(=O)N(C)[C@@H](CC(C)C)C(=O)N[C@@H](C(C)C)C(=O)N(C)[C@@H](CC(C)C)C(=O)N[C@@H](C)C(=O)N[C@@H](C)C(=O)N(C)[C@@H](CC(C)C)C(=O)N(C)[C@@H](CC(C)C)C(=O)N(C)[C@@H](C(C)C)C(=O)N1C (some centres undefined)
4.19 µM (inactive)
C=CC(C)CCC(C/C=C(\C)CCCC(C)C)C(=C)CCCC(C)C (centres undefined)
> 100 µM (inactive)

Next, consider the following compound.
Give the reported GI50 for this compound. NC(=O)c1cc([N+](=O)[O-])cc([N+](=O)[O-])c1 [NITROMIDE]
> 100 µM (inactive)
